target: hNTS2 (Homo sapiens); construct: expressed in transfected cells; host or cells: CHO-K1; test: Radioligand competition binding with [3H]NT, membranes of CHO-K1 cells expressing hNTS2; settings: Table 2; hNTS2 over hNTS1
Sequence (O95665 whole entry): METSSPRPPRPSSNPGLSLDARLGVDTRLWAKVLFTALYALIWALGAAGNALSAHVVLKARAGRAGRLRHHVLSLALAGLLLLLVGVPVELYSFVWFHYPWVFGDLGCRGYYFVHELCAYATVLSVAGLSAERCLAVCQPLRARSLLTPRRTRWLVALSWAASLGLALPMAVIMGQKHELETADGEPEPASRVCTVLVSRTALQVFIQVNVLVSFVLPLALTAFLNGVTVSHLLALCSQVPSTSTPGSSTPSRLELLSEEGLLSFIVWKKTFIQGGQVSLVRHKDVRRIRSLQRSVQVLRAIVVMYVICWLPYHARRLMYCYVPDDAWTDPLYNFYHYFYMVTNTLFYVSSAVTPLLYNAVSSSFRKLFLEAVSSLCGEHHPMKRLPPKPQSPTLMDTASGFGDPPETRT
Where a SMILES comes first, the peptide text is derived from it. [ ]: non-standard residue; d: D form. Ala(indol-4-yl) = N[C@@H](Cc1cccc2[nH]ccc12)C(=O)O; NMeR = CN[C@@H](CCCNC(=N)N)C(=O)O; Tle = CC(C)(C)[C@H](N)C(=O)O; dOrn = NCCC[C@@H](N)C(=O)O; Orn = NCCC[C@H](N)C(=O)O; Dab = NCC[C@H](N)C(=O)O
Short version: hNTS2 Selectivity at least 0.8 is yes (1), less is no (0).

Answered examples (10):
>  <compound>
CC[C@H](C)[C@H](NC(=O)[C@H](Cc1cccc2[nH]ccc12)NC(=O)[C@@H]1CCCN1C(=O)[C@H](CCCNC(=N)N)NC(=O)[C@H](N)CCCCN)C(=O)N[C@@H](CC(C)C)C(=O)O [NT67L, [D-Lys^8,L-neo-Trp^11]NT(8-13)] (H-[dK]RP[Ala(indol-4-yl)]IL-OH; N-terminus and C-terminus assumed)

>  <group_label>
no (0)

$$$$
>  <compound>
CN[C@@H](CCCNC(=N)N)C(=O)N[C@H](CCCN)C(=O)N1CCC[C@H]1C(=O)N[C@@H](Cc1cccc2[nH]ccc12)C(=O)N[C@H](C(=O)N[C@@H](CC(C)C)C(=O)O)C(C)(C)C [NT78] (H-[NMeR][dOrn]P[Ala(indol-4-yl)][Tle]L-OH; C-terminus assumed)

>  <group_label>
yes (1)

$$$$
>  <compound>
CC[C@H](C)[C@H](NC(=O)[C@H](Cc1ccc(O)cc1)NC(=O)[C@@H]1CCCN1C(=O)[C@@H](CCCCN)NC(=O)[C@@H](N)CCCNC(=N)N)C(=O)N[C@@H](CC(C)C)C(=O)O [NT03, [D-Lys^9]NT(8-13)] (H-R[dK]PYIL-OH; N-terminus and C-terminus assumed)

>  <group_label>
yes (1)

$$$$
>  <compound>
CC[C@H](C)[C@H](NC(=O)[C@H](Cc1ccc(O)cc1)NC(=O)[C@@H]1CCCN1C(=O)[C@H](CCCN)NC(=O)[C@H](N)CCCN)C(=O)N[C@@H](CC(C)C)C(=O)O [NT27, [D-Orn^8,L-Orn^9]NT(8-13)]

>  <group_label>
no (0)

$$$$
>  <compound>
CC[C@H](C)[C@H](NC(=O)[C@H](Cc1ccc(O)cc1)NC(=O)[C@@H]1CCCN1C(=O)[C@@H](N)CCCN)C(=O)N[C@@H](CC(C)C)C(=O)O [NT34, [L-Orn^9]NT(9-13)] (H-[Orn]PYIL-OH; N-terminus and C-terminus assumed)

>  <group_label>
no (0)

$$$$
>  <compound>
CC(C)C[C@H](NC(=O)[C@@H](NC(=O)[C@H](Cc1cccc2[nH]ccc12)NC(=O)[C@@H]1CCCN1C(=O)[C@@H](CCCN)NC(=O)[C@@H](N)CCCNC(=N)N)C(C)(C)C)C(=O)O [NT77] (H-R[dOrn]P[Ala(indol-4-yl)][Tle]L-OH; N-terminus and C-terminus assumed)

>  <group_label>
yes (1)

$$$$
>  <compound>
CN[C@@H](CCCNC(=N)N)C(=O)N[C@@H](CCN)C(=O)N1CCC[C@H]1C(=O)N[C@@H](Cc1cccc2[nH]ccc12)C(=O)N[C@H](C(=O)N[C@@H](CC(C)C)C(=O)O)C(C)(C)C [NT71] (H-[NMeR][Dab]P[Ala(indol-4-yl)][Tle]L-OH; N-terminus and C-terminus assumed)

>  <group_label>
yes (1)

$$$$
>  <compound>
CC(C)C[C@H](NC(=O)[C@@H](NC(=O)[C@H](Cc1cccc2[nH]ccc12)NC(=O)[C@@H]1CCCN1C(=O)[C@H](CCCNC(=N)N)NC(=O)[C@H](N)CCCCN)C(C)(C)C)C(=O)O [NT66L] (H-[dK]RP[Ala(indol-4-yl)][Tle]L-OH; N-terminus and C-terminus assumed)

>  <group_label>
yes (1)

$$$$
>  <compound>
CC[C@H](C)[C@H](NC(=O)[C@H](Cc1ccc(O)cc1)NC(=O)[C@@H]1CCCN1C(=O)[C@H](CCCNC(=N)N)NC(=O)[C@@H](N)CCN)C(=O)N[C@@H](CC(C)C)C(=O)O [NT29, [DAB^8]NT(8-13)] (H-[Dab]RPYIL-OH; N-terminus and C-terminus assumed)

>  <group_label>
no (0)

$$$$
>  <compound>
CC[C@H](C)[C@H](NC(=O)[C@H](Cc1cccc2[nH]ccc12)NC(=O)[C@@H]1CCCN1C(=O)[C@H](N)CCCCN)C(=O)N[C@@H](CC(C)C)C(=O)O [NT73, [D-Lys^9,L-neo-Trp^11]NT(9-13)] (H-[dK]P[Ala(indol-4-yl)]IL-OH; N-terminus and C-terminus assumed)

>  <group_label>
no (0)

$$$$

Is the recorded value of hNTS2 Selectivity equal to or greater than 0.8 for this compound? CN[C@@H](CCCNC(=N)N)C(=O)N[C@@H](CCCCN)C(=O)N1CCC[C@H]1C(=O)N[C@@H](Cc1cccc2[nH]ccc12)C(=O)N[C@H](C(=O)N[C@@H](CC(C)C)C(=O)O)C(C)(C)C [NT69L] (H-[NMeR]KP[Ala(indol-4-yl)][Tle]L-OH; C-terminus assumed) yes (1)

Could you please find out whether CN[C@@H](CCCNC(=N)N)C(=O)N[C@H](CCCN)C(=O)N1CCC[C@H]1C(=O)N[C@@H](Cc1c[nH]c2ccccc12)C(=O)N[C@H](C(=O)N[C@@H](CC(C)C)C(=O)O)C(C)(C)C [NT78T] (H-[NMeR][dOrn]PW[Tle]L-OH; N-terminus and C-terminus assumed) has hNTS2 Selectivity that meets 0.8 or exceeds it? yes (1)

Identify whether the reported hNTS2 Selectivity of the following compound is 0.8 or greater: CC[C@H](C)[C@H](NC(=O)[C@H](Cc1ccc(O)cc1)NC(=O)[C@@H]1CCCN1C(=O)[C@@H](CCCN)NC(=O)[C@@H](N)CCCNC(=N)N)C(=O)N[C@@H](CC(C)C)C(=O)O [NT24, [D-Orn^9]NT(8-13)] (H-R[dOrn]PYIL-OH; N-terminus and C-terminus assumed) no (0)
